- target.entity: Transcription factor GATA-4 (Mus musculus) (UniProt Q08369)
- Sequence (Q08369 whole entry): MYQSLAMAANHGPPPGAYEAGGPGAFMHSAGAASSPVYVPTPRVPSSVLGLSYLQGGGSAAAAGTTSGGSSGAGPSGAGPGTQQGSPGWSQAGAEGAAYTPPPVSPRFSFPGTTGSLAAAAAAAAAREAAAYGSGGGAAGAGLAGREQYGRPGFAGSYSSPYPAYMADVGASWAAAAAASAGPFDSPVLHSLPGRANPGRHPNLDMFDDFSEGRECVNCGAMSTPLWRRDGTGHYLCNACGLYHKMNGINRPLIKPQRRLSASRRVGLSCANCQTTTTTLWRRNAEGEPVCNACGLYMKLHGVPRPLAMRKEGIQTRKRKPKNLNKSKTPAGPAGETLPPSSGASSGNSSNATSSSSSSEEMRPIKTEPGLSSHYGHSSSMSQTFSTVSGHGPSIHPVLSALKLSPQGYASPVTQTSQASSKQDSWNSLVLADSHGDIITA
- measurement.description: Inhibition of mouse GATA4 expressed in Chlorocebus aethiops COS1 cells harboring NP-112 reporter gene assessed as BNP promoter-driven transcriptional activity at 10 uM after 24 hrs by luciferase reporter gene assay relative to control
- Type: cell-based
- Design: scale not given: the % may be the effect or the level left
assay.endpoint: Activity (%)
Kindly answer with a numeric value in %, unit omitted.

Known results for compounds:
[
  {
    "entry.smiles": "CCN(CC)c1ccc(NC(=O)c2cnc(SC)n2-c2ccc(F)cc2)cc1",
    "Activity / %": 45
  },
  {
    "entry.smiles": "CCN(CC)c1ccc(NC(=O)c2c(-c3ccccc3)nnn2CCc2ccccc2)cc1",
    "Activity / %": 38
  },
  {
    "entry.smiles": "COc1ccc(-c2cc(NC(=O)c3ccc(C(C)(C)C)cc3)n[nH]2)cc1",
    "Activity / %": 40
  }
]

// Activity value for CCN(c1ccc(NC(=O)c2c(C)noc2-c2ccccc2)cc1)C(C)C : 41
